Test system: COLO 205 colon
ASSAY_SUMMARY: NCI-60 one-dose screen, 48 h (100 = growth as untreated, 0 = no growth, -100 = all killed)
ASSAY_CONTEXT: 10 µM unless noted
This is part of a sample that, as a whole, favours compounds with a hit. Of some 83,000 tested, about 20% had one in any assay.
METRIC_NAME: growth (%)

[[record]]
compound = "COCCn1cc(-c2nc(-c3cc4cccnc4n3CCOC)cs2)c2cc(OC)ccc21"
obs_value = 44.3

[[record]]
compound = "Cc1nc2ncnc(Cl)c2[nH]1"
obs_value = 113

[[record]]
compound = "COc1ccc2[nH]cc(C(c3cc(F)cc(F)c3)c3c[nH]c4ccc(OC)cc34)c2c1"
obs_value = 78.1

[[record]]
compound = "O=C(c1ccc(-c2ccccc2)cc1)c1ccc([N+](=O)[O-])cc1"
obs_value = 111

[[record]]
compound = "COc1cccc(CNc2ncnc3c2ncn3C2OC(CO)C(O)C2O)c1O (centres undefined)"
obs_value = 24.6

[[record]]
compound = "CN1CCN(C(=O)OCc2ccc3c(Cl)cc(Cl)c(O)c3n2)CC1"
obs_value = 107

[[record]]
compound = "COc1cc(NC(C)CCCNC(C)C)c2ncccc2c1OC (centres undefined)"
obs_value = 90.6

[[record]]
compound = "O=C1/C(=C/c2ccc(-c3ccc(Br)cc3)o2)SC(=S)N1CCc1ccc(O)cc1"
obs_value = -27.8

[[record]]
compound = "CC(C)n1cnc2c(=S)nc[nH]c21"
obs_value = 114

[[record]]
compound = "O=C1C(Cl)=C(Oc2ccccc2)C(=O)c2ccccc21"
obs_value = 32.3

[[record]]
compound = "O=C1C(Cl)=C(Nc2ccc(O)cc2)C(=O)N1Cc1ccc(Cl)cc1"
obs_value = 35.8

[[record]]
compound = "CC(C)(C)n1cc(-c2ccnc(NCCNS(=O)(=O)c3cccc4ccccc34)c2)c(-c2cccc(F)c2)n1"
obs_value = -67.9

[[record]]
compound = "O=C1Nc2ccc(I)cc2C1=O"
obs_value = 88.9

[[record]]
compound = "O=C(OCc1ccc2c(Cl)cc(Cl)c(O)c2n1)n1cncn1"
obs_value = 96.5


----------
System: T-47D breast
ASSAY_SUMMARY: NCI-60 one-dose screen, 48 h
ASSAY_CONTEXT: 10 µM unless noted
Protocol: Growth inhibition of the T-47D human tumor cell line is measured as a screen for anti-cancer activity. Cells are grown in 96 well plates and exposed to the test compound for 48 hours. Compounds are tested at a single concentration, which is 10^-5 M for most compounds. The reported endpoint is percent growth (GI% or GIPRCNT), where numbers from 0 - 100% represent growth inhibition, and numbers from -100% - 0 represent cell death. For example, a value of 40 represents 60% growth inhibition. […]
This is part of a sample that, as a whole, favours compounds with a hit. Of some 83,000 tested, about 20% had one in any assay. Activity calls are given as the source filed them. How the source made its calls: active means growth percent below 10; inactive means the rest.
Outcomes: active, inactive

[[record]]
compound = "CC1=C(CCC(C)N(C)Cc2ccc(OCCCN3CCCC3)cc2)C(C)(C)CCC1 (stereo unspecified)"
target_entity = "T-47D breast"
label_value = "active"

[[record]]
compound = "CCOC(=O)c1cc(-c2ccc([N+](=O)[O-])cc2)n(-c2ccc(C(=O)O)c(O)c2)c1C"
target_entity = "T-47D breast"
label_value = "inactive"

[[record]]
compound = "CN(C)CCCC1(c2ccc(F)cc2)OCc2cc(-c3cncc4ccccc34)ccc21 (stereo unspecified)"
target_entity = "T-47D breast"
label_value = "inactive"

[[record]]
compound = "Cc1nc2ncnc(Cl)c2[nH]1"
target_entity = "T-47D breast"
label_value = "inactive"

[[record]]
compound = "Nc1nc2c([nH]1)c1[nH]c3ccccc3c1c1[nH]c3ccccc3c21"
target_entity = "T-47D breast"
label_value = "inactive"

[[record]]
compound = "COc1cc(N2C(=O)[C@H](O)C2c2ccc(SC)cc2)cc(OC)c1OC (stereo partly specified)"
target_entity = "T-47D breast"
label_value = "inactive"

[[record]]
compound = "CN1CCN(C(=O)c2ccc(NC(=O)Nc3ccc(-c4nc(N5CCOCC5)c5cccn5n4)cc3)cc2)CC1"
target_entity = "T-47D breast"
label_value = "active"

[[record]]
compound = "CNC(=O)c1cc(Oc2ccc3c(c2)sc2nc(-c4cc(OC)c(OC)c(OC)c4)cn23)ccn1"
target_entity = "T-47D breast"
label_value = "active"

[[record]]
compound = "CC(C)n1cnc2c(=S)nc[nH]c21"
target_entity = "T-47D breast"
label_value = "inactive"

[[record]]
compound = "CCC(C)N(c1ccc(Cl)cc1)c1nc(-c2ccc(Br)cc2)cs1 (stereo unspecified)"
target_entity = "T-47D breast"
label_value = "inactive"

[[record]]
compound = "CS(=O)(=O)Nc1cc(-c2ccc3ncnc(Nc4c(Cl)ccc5c4OCO5)c3c2)cnc1Cl"
target_entity = "T-47D breast"
label_value = "active"

[[record]]
compound = "Cc1cccc(Cl)c1NC(=O)c1ccc2nc(NC(=O)NCCN(C)C)sc2c1"
target_entity = "T-47D breast"
label_value = "inactive"

[[record]]
compound = "COc1cc(OC)cc(C2=C3CC[C@@H]4[C@H](CC[C@]5(C)C(=O)CC[C@@H]45)C3=CC3C(O)c4cccnc4N4C(=O)COC234)c1 (stereo partly specified)"
target_entity = "T-47D breast"
label_value = "inactive"

[[record]]
compound = "CN(C)CC(=O)Nc1ccc2ncnc(Nc3ccc(Oc4cccc(C(F)(F)F)c4)c(Cl)c3)c2c1"
target_entity = "T-47D breast"
label_value = "inactive"

[[record]]
compound = "O=c1oc2ccccc2cc1C1=NN=C(SCc2ccccc2)SC1"
target_entity = "T-47D breast"
label_value = "inactive"

[[record]]
compound = "O=C1CC(N2C(=O)/C(=C/C(Cl)=C\\c3ccc([N+](=O)[O-])cc3)SC2=S)C(=O)N1c1ccc(Cl)cc1 (stereo unspecified)"
target_entity = "T-47D breast"
label_value = "inactive"

[[record]]
compound = "Cc1cnc(C(=O)NNc2nc3sc4c(c3c(=O)n2C)C(C)CCC4)cn1 (stereo unspecified)"
target_entity = "T-47D breast"
label_value = "active"

[[record]]
compound = "COCCNC(=O)c1ccc(-c2nc3ccc4[nH]ncc4c3c3c2CCCC3)cc1"
target_entity = "T-47D breast"
label_value = "inactive"

[[record]]
compound = "Cc1cc2c(O)c(-c3cc(Cl)ccc3Cl)c3sc(=O)oc3c2cc1C"
target_entity = "T-47D breast"
label_value = "inactive"

[[record]]
compound = "N#Cc1cccc(F)c1"
target_entity = "T-47D breast"
label_value = "inactive"

[[record]]
compound = "CCN(CC)CCNC(=O)c1cn2ncnc(Oc3ccc(NC(=O)Nc4ccc(Cl)c(C(F)(F)F)c4)c(F)c3)c2c1C"
target_entity = "T-47D breast"
label_value = "inactive"

[[record]]
compound = "O=C(/C=C/c1ccccc1)c1cccc(OCCCOc2cccc(C(=O)/C=C/c3ccccc3)c2)c1"
target_entity = "T-47D breast"
label_value = "inactive"

[[record]]
compound = "CN(CCn1sc(=O)n(Cc2ccccc2)c1=O)Cc1ccc2c(Cl)cc(Cl)c(O)c2n1"
target_entity = "T-47D breast"
label_value = "inactive"

[[record]]
compound = "COc1ccc2c(c1)c(-c1noc(C(=O)c3cn(C)c4ccc(Br)cc34)n1)cn2C"
target_entity = "T-47D breast"
label_value = "inactive"

[[record]]
compound = "CCN1CCN(c2cc(C(=O)Nc3nc(-c4cc(OC)c(OC)c(OC)c4)cs3)cc(C(F)(F)F)c2)CC1"
target_entity = "T-47D breast"
label_value = "inactive"

[[record]]
compound = "COC(=O)CCC(=O)C(=O)OC"
target_entity = "T-47D breast"
label_value = "inactive"

[[record]]
compound = "CCN(CC)c1nc(SCc2ccccc2Cl)ncc1C"
target_entity = "T-47D breast"
label_value = "inactive"

[[record]]
compound = "O=C(O)CCCN1C(=O)/C(=C/C(Cl)=C/c2ccccc2)SC1=S"
target_entity = "T-47D breast"
label_value = "inactive"

[[record]]
compound = "COC1=CC(c2ccc[nH]2)=N/C1=C\\c1[nH]c(C)c(C(=O)OCc2ccccc2)c1C"
target_entity = "T-47D breast"
label_value = "active"

[[record]]
compound = "N=C(N)c1ccc(-c2ccc(-c3ccc(Cl)cc3)s2)nc1"
target_entity = "T-47D breast"
label_value = "inactive"

[[record]]
compound = "COc1ccc(N2CCC(=O)NC2=S)cc1"
target_entity = "T-47D breast"
label_value = "inactive"

[[record]]
compound = "COc1ccccc1Nc1nc2c(s1)C1=CC[C@H]3[C@@H]4CC[C@H]([C@H](C)CCCC(C)C)[C@@]4(C)CC[C@@H]3[C@@]1(C)CC2"
target_entity = "T-47D breast"
label_value = "inactive"

[[record]]
compound = "COc1ccc(/C=C2\\COc3ccc(O)c(O)c3C2=O)cc1"
target_entity = "T-47D breast"
label_value = "active"

[[record]]
compound = "COc1ccc2nc(NC(=O)CSc3nnc4n3S(=O)(=O)c3ccccc3N4C)sc2c1"
target_entity = "T-47D breast"
label_value = "inactive"

[[record]]
compound = "Oc1c(Cl)cc(Cl)cc1/C=N/Nc1nnc(N/N=C/c2cc(Cl)cc(Cl)c2O)c2ccccc12"
target_entity = "T-47D breast"
label_value = "inactive"

[[record]]
compound = "CCCCCCCCn1ccc2cc(NC(=O)Cn3cc(CN4CCCCC4)nn3)ccc21"
target_entity = "T-47D breast"
label_value = "active"

